Source listed as patent US9353090B2.

Assay: physchem
Details: pH 6.8, aqueous buffer, kinetic from dmso stock, Solubility (pH 6.8)
Parameter: solubility at 24 h (µg/mL)

Compound: Cc1cccc(-c2cccc(N3C[C@@H]4C[C@]4(C(=O)O)C3)n2)c1OCc1cc(C#N)c2c(c1)CCN(C1CCOCC1)C2 [Compound 30]
solubility at 24 h [µg/mL]: 62

[1] Cc1cc(COc2c(C)cccc2-c2cccc(N3C[C@@H]4C[C@]4(C(=O)O)C3)n2)cc2c1CN(C1CCOC1)CC2 (some centres unmarked) [Compound 24]
[2] Cc1ccc(OCc2ccc3c(c2)CCN(C2CCCOC2)C3)c(-c2csc(N3CC[C@@]4(C(=O)O)C[C@H]4C3)n2)c1 (some centres unmarked) [Compound 113]
[3] Cc1ccc(OCc2ccc3c(c2C)CCN(C2CCOCC2)CC3)c(-c2cccc(N3C[C@@H]4C[C@]4(C(=O)O)C3)n2)c1 [Compound 41]
[4] Cc1csc(CN2CCc3c(ccc(COc4ccccc4-c4cccc(N5CC[C@@]6(C(=O)O)C[C@H]6C5)n4)c3C)C2)n1 [Compound 304]
Arrange these 4 compounds in increasing order of solubility at 24 h. Hello, could you send the labels back in the order asked? Thank you. 2, 3, 1, 4
